System: CCRF-CEM leukemia
protocol details: NCI tumour cell line growth inhibition, 48 h
Where a SMILES comes first, the peptide text is derived from it. [ ]: non-standard residue; d: D form. The star is where a group is joined. ξ: configuration not given here. NMeY = CN[C@@H](Cc1ccc(O)cc1)C(=O)O; Cbz = O=C(OCc1ccccc1)*; ξA = CC(N)C(=O)O
Quick reference: TGI of the listed items.
readout type: TGI

[[record]]
compound = "O=P1(Oc2ccc(Cl)cc2Cl)Oc2cc3ccccc3cc2O1"
tested_target = "CCRF-CEM leukemia"
readout_type = "TGI"
assay_value = "> 100 µM"

[[record]]
compound = "CCCCCCC(=O)OC[n+]1ccc(-c2c(COC(=O)NC(C)C)c(COC(=O)NC(C)C)c3n2CCC3)cc1"
tested_target = "CCRF-CEM leukemia"
readout_type = "TGI"
assay_value = "> 88 µM"

[[record]]
compound = "CCOC(=O)/C(C1=NCCN1C)=C(\\O)c1ccccc1"
tested_target = "CCRF-CEM leukemia"
readout_type = "TGI"
assay_value = "> 100 µM"

[[record]]
compound = "CC[O-].CC[O-].O=C1C=C([O-])C(=O)c2ccccc21.O=C1C=C([O-])C(=O)c2ccccc21.[Ti+4]"
tested_target = "CCRF-CEM leukemia"
readout_type = "TGI"
assay_value = "> 100 µM"

[[record]]
compound = "COC(=O)C(=O)C(C(=O)OC)C(=O)C(=O)Nc1cc(Cl)c(C)cc1S(=O)(=O)O (centres undefined)"
tested_target = "CCRF-CEM leukemia"
readout_type = "TGI"
assay_value = "> 100 µM"

[[record]]
compound = "CCCCCCCCCCCCCCCC(=O)NS(=O)(=O)OC[C@H]1O[C@@H](n2cnc3c(N)ncnc32)[C@H](O)[C@@H]1O"
tested_target = "CCRF-CEM leukemia"
readout_type = "TGI"
assay_value = "10.6 µM"

[[record]]
compound = "c1cc[n+](Cc2c3ccccc3cc3c2ccc2ccccc23)cc1"
tested_target = "CCRF-CEM leukemia"
readout_type = "TGI"
assay_value = "24 µM"

[[record]]
compound = "COc1ccc(C2=C(c3ccccc3)C(=O)N3CCCC3C2)cc1 (centres undefined)"
tested_target = "CCRF-CEM leukemia"
readout_type = "TGI"
assay_value = "> 100 µM"

[[record]]
compound = "O=C1c2cc3c(cc2[C@@H]2C(O)[C@H]4O[C@H]4C4CCN1C42)OCO3 (some centres undefined)"
tested_target = "CCRF-CEM leukemia"
readout_type = "TGI"
assay_value = "> 37.5 µM"

[[record]]
compound = "COC(=O)c1cc(/C=C/C(=O)Cc2ccccc2)cn1S(=O)(=O)c1ccccc1"
tested_target = "CCRF-CEM leukemia"
readout_type = "TGI"
assay_value = "> 100 µM"

[[record]]
compound = "CN1C(=O)C(=Cc2ccc(Br)cc2)C(=O)N(C)C1=O"
tested_target = "CCRF-CEM leukemia"
readout_type = "TGI"
assay_value = "> 100 µM"

[[record]]
compound = "c1cc2c(cc1C1OCC3C(c4ccc5c(c4)OCO5)OCC13)OCO2 (centres undefined)"
tested_target = "CCRF-CEM leukemia"
readout_type = "TGI"
assay_value = "> 100 µM"

[[record]]
compound = "CC(=Nc1ccc(Cl)cc1)c1ccncc1"
tested_target = "CCRF-CEM leukemia"
readout_type = "TGI"
assay_value = "> 100 µM"

[[record]]
compound = "COP12(OC)NC(=O)OC1(C(F)(F)F)c1ccccc1O2 (centres undefined)"
tested_target = "CCRF-CEM leukemia"
readout_type = "TGI"
assay_value = "> 100 µM"

[[record]]
compound = "N#Cc1ccc(C2OCC3CC=CCC3CO2)cc1 (centres undefined)"
tested_target = "CCRF-CEM leukemia"
readout_type = "TGI"
assay_value = "> 100 µM"

[[record]]
compound = "COc1ccc(C[C@@H](C(=O)N[C@@H](C)C(N)=O)N(C)C(=O)[C@@H]2CCCN2C(=O)[C@H](CC(C)C)NC(=O)C(C)NC(=O)OCc2ccccc2)cc1 (some centres undefined) (Cbz-[ξA]LP[NMeY](Me)A-NH2)"
tested_target = "CCRF-CEM leukemia"
readout_type = "TGI"
assay_value = "> 100 µM"

[[record]]
compound = "O=C(c1ccccc1)c1ccc(N2C(=O)/C(=C/c3cccc(Oc4ccccc4)c3)N=C2c2ccccc2)c(N2C(=O)/C(=C/c3cccc(Oc4ccccc4)c3)N=C2c2ccccc2)c1"
tested_target = "CCRF-CEM leukemia"
readout_type = "TGI"
assay_value = "> 100 µM"

[[record]]
compound = "O=C1/C(=C/c2ccc(Cl)cc2)CN(Cc2cn(CCCNc3ccnc4cc(Cl)ccc34)nn2)C/C1=C\\c1ccc(Cl)cc1"
tested_target = "CCRF-CEM leukemia"
readout_type = "TGI"
assay_value = "> 20.5 µM"

[[record]]
compound = "N#CCCC1(CCC#N)S(=O)(=O)OCCOS1(=O)=O"
tested_target = "CCRF-CEM leukemia"
readout_type = "TGI"
assay_value = "> 100 µM"

